test system: EKVX NSCLC; assay: NCI-60 one-dose screen, 48 h (100 = growth as untreated, 0 = no growth, -100 = all killed); conditions: 10 µM unless noted
About 83,000 compounds went through this panel and 20% of them were active in at least one assay; those are over-represented in the sample as a whole. Calls of active or inactive are those of the source. How the source made its calls: active means growth percent below 10; inactive means the rest.
property: growth

Use the examples below as a reference point.
COc1cc(-c2csc(NC(=O)c3ccc(N4CCOCC4)c(C(F)(F)F)c3)n2)cc(OC)c1OC ... 33.7% (inactive)
O=C(CN1C(=O)NC2NC(=O)NC21)N/N=C/c1ccccc1[N+](=O)[O-] (stereo unspecified) ... 103% (inactive)
COCCn1cc(-c2csc(-c3cn(C)c4ccc(Br)cc34)n2)c2cccnc21 ... 58.4% (inactive)
Nc1n[nH]c2cccc(C#Cc3cccc(C(=O)Nc4cc(C(F)(F)F)cc(C(F)(F)F)c4)c3)c12 ... 92% (inactive)
Cc1cc(C)c2c(c1)N(C)c1ncnc(-n3cnc4cc(C)ccc43)c1CC2C (stereo unspecified) ... 39% (inactive)

Exercise: growth for COc1c(B(O)O)cccc1-c1nc2c(F)cc3[nH]ncc3c2c2c1CCCC2 ?
Solution: 7.37% (active)

Exercise: Ok, now CCCCCOC(=O)c1c(C)[nH]c(/C=C2\N=C(c3ccc[nH]3)C=C2OC)c1C
Solution: 12.5% (inactive)

Exercise: Now consider CC(C)=CC(=O)OCC(=O)O[C@@H]1C[C@]2(C(C)C)O[C@@]1(C)[C@@H]1CC[C@@H](C)[C@H]1[C@@H]2OC(=O)/C=C/c1ccccc1 and answer again.
Solution: 84.1% (inactive)

Exercise: Now the same for COC12C=C/C(=C(/C(=O)OCc3ccncn3)C(=O)CCCCCCCCC3(OC)C=C/C(=C(/C(=O)OCc4ccncn4)C(=O)CCCCCCCC1)O3)O2
Solution: -15.5% (active)
